Values were extracted from ChEMBL document CHEMBL1146982.

Biological target: Cannabinoid receptor 1 (Rattus norvegicus)
Sequence (P20272 whole entry): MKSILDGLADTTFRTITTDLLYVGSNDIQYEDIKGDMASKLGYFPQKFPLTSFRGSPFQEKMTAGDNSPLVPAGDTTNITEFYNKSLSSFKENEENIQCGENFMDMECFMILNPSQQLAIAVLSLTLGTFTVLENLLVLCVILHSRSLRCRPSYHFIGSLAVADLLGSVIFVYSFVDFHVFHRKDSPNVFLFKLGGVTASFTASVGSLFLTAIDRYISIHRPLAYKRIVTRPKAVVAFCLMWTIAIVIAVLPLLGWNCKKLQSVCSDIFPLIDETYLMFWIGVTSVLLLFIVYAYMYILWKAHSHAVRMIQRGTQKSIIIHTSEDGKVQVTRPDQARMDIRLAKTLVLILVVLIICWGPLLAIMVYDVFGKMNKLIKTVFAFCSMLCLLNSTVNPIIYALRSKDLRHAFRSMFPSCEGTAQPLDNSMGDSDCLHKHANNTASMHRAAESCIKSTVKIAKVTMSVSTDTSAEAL
Assay: Potency at CB1 receptor in rat brain by [35S]GTP-gamma-S binding assay
Each entry below lists one item and its recorded EC50 value.
Field format: number, assumed µM, no unit text.

Reference set, count: 2
                                   molecule                       experimental_target  measure  result
0  CCCCC/C=C\C/C=C\C/C=C\C/C=C\CC[C@@H](C)C(=O)OC(CO)CF (mixture of isomers)  Cannabinoid receptor 1 (Rattus norvegicus)     EC50    15.8
1  CCCCC/C=C\C/C=C\C/C=C\C/C=C\CC[C@H](C)C(=O)OC(CO)CO  Cannabinoid receptor 1 (Rattus norvegicus)     EC50    15.8

### Prompt Recall and state the measured EC50 for `CCCCC/C=C\C/C=C\C/C=C\C/C=C\CC[C@@H](C)C(=O)OC(CO)CO` .
### Response 10

----------
Biological target: Cannabinoid receptor 1 (Rattus norvegicus) (UniProt P20272)
Sequence (P20272 whole entry): as above
Experiment: Efficacy at CB1 receptor in rat brain by [35S]GTPgammaS binding assay (basal value set at 100%)
Type: functional, tissue-based
measure: Emax
Enter the number, and then the unit.

Study these solved cases before continuing.
                                   compound  result
0  CCCCC/C=C\C/C=C\C/C=C\C/C=C\CC[C@@H](C)C(=O)OC(CO)CO    407%
1  CCCCC/C=C\C/C=C\C/C=C\C/C=C\CC[C@@H](C)C(=O)OC(CO)CF (mixture of isomers)    168%
2  CCCCC/C=C\C/C=C\C/C=C\C/C=C\CCCC(=O)OC(CO)CO    620%

### Prompt Recall the reported Emax of `CCCCC/C=C\C/C=C\C/C=C\C/C=C\CC[C@H](C)C(=O)OC(CO)CO` on Cannabinoid receptor 1 (Rattus norvegicus) (UniProt P20272) and write it down.
### Response 227%
